# pIC50 per record follows
# tgt: KRAS G12V (Homo sapiens (Human), UniProt P01116+P62937, G12V)
# Sequence (P01116 other isoform, or with tags, fused parts or gaps G12V): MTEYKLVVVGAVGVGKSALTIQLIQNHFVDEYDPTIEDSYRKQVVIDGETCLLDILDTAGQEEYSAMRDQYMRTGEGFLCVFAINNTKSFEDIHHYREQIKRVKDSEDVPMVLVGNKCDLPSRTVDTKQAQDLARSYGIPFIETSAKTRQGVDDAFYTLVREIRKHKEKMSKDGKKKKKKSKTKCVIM
# Sequence (P62937 whole entry): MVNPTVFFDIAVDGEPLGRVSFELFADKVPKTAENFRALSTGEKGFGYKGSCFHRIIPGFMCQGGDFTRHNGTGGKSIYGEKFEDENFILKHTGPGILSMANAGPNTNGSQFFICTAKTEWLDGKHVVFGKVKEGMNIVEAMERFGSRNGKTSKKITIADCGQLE
# procedure text: Ras-Raf disruption/FRET/MOA assay (BRAF RBD, Cyclophilin A)
# Assay type: biochemical
# run conditions: read-out: KRAS G12V FRET IC50
pIC50: −log10 of the molar value.

CCn1c(-c2cccnc2[C@H](C)OC)c2c3cc(ccc31)-c1csc(n1)C[C@H](NC(=O)[C@H](C(C)C)N(C)C(=O)N1C[C@@H](C)N(C)C[C@@H]1C)C(=O)N1CCC[C@H](N1)C(=O)OCC(C)(C)C2; 5.00 to 6.00
CCn1c(-c2cccnc2[C@H](C)OC)c2c3cc(ccc31)-c1cc(O)cc(c1)C[C@H](NC(=O)[C@@H]1[C@@H](C)CCCN1C(C)=O)C(=O)N1CCC[C@H](N1)C(=O)OCC(C)(C)C2; 6.00 to 7.00
CCn1c(-c2cccnc2[C@H](C)OC)c2c3cc(ccc31)-c1csc(n1)C[C@H](NC(=O)[C@H](C(C)C)N(C)C(=O)N1CC[C@H]1CN)C(=O)N1CCC[C@H](N1)C(=O)OCC(C)(C)C2; 6.00 to 7.00

Please turn your attention to the following entry.
Fill in pIC50 for record CCn1c(-c2cccnc2[C@H](C)OC)c2c3cc(ccc31)-c1csc(n1)C[C@H](NC(=O)[C@H](C(C)C)N(C)C(=O)N1CC(S(C)(=O)=O)C1)C(=O)N1CCC[C@H](N1)C(=O)OCC(C)(C)C2
6.00 to 7.00

* * *

# tgt: KRAS G12C (Homo sapiens (Human), UniProt P01116+P62937, G12C)
# Sequence (P01116-2 other isoform, or with tags, fused parts or gaps G12C): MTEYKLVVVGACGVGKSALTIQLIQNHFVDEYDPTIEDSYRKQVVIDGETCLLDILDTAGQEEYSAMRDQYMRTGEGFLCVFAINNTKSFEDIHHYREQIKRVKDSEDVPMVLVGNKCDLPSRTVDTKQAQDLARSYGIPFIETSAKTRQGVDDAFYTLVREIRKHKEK
# Sequence (P62937 whole entry): as the sequence (P62937 whole entry) above
# procedure text: Ras-Raf disruption/FRET/MOA assay, KRAS G12C
# Type: biochemical
# run conditions: read-out: KRAS G12C FRET data IC50
measured attribute: IC50

Record excerpt, results attached:
CCn1c(-c2cnccc2COC)c2c3cc(ccc31)-c1cccc(c1)C[C@H](NC(=O)[C@H](C(C)C)N(C)C(=O)CCN=C=NCc1c(OC)cccc1OC)C(=O)N1CCC[C@H](N1)C(=O)OCC(C)(C)C2; 0.1 to 1 µM
CCn1c(-c2cnccc2COC)c2c3cc(ccc31)-c1cc(O)cc(c1)C[C@H](NC(=O)[C@H](C(C)C)N(C)C(=O)[C@H]1CCN(C(=O)[C@H]3CN3)C1)C(=O)N1CCC[C@H](N1)C(=O)OCC(C)(C)C2; < 0.01 µM
CCn1c(-c2cnccc2COC)c2c3cc(ccc31)-c1cc(O)cc(c1)C[C@H](NC(=O)[C@H](C(C)C)N(C)C(=O)CCN(C)C(=O)[C@H]1CN1)C(=O)N1CCC[C@H](N1)C(=O)OCC(C)(C)C2 (single isomer, unassigned); < 0.01 µM
CCn1c(-c2cccnc2[C@H](C)OC)c2c3cc(ccc31)-c1cc(O)cc(c1)C[C@H](NC(=O)[C@H](C(C)C)N1CC[C@@]3(CCC(C(=O)[C@@H]4N[C@@H]4C4CC4)C3)C1=O)C(=O)N1CCC[C@H](N1)C(=O)OCC(C)(C)C2 (stereo partly drawn); 0.01 to 0.1 µM
CCn1c(-c2cnccc2COC)c2c3cc(ccc31)-c1cc(O)cc(c1)C[C@H](NC(=O)[C@H](C(C)C)N(C)C(=O)CN1C(=O)[C@H]3N[C@H]3C1=O)C(=O)N1CCC[C@H](N1)C(=O)OCC(C)(C)C2; 0.1 to 1 µM
CCn1c(-c2cnccc2COC)c2c3cc(ccc31)-c1cc(O)cc(c1)C[C@H](NC(=O)[C@H](C(C)C)N(C)C(=O)[C@H]1CCN(C(=O)[C@@H]3CN3)C1)C(=O)N1CCC[C@H](N1)C(=O)OCC(C)(C)C2; 0.01 to 0.1 µM
CCn1c(-c2cnccc2COC)c2c3cc(ccc31)-c1cc(O)cc(c1)C[C@H](NC(=O)[C@H](C(C)C)N(C)C(=O)N1CCCN(C(=O)[C@H]3CN3)CC1)C(=O)N1CCC[C@H](N1)C(=O)OCC(C)(C)C2; 0.01 to 0.1 µM
CCn1c(-c2cnccc2COC)c2c3cc(ccc31)-c1cccc(c1)C[C@H](NC(=O)[C@H](C(C)C)N1CC[C@@H](CN=C=NCCOC)C1)C(=O)N1CCC[C@H](N1)C(=O)OCC(C)(C)C2; 0.1 to 1 µM

Please turn your attention to the following entry.
Fill in IC50 for record CCn1c(-c2cccnc2[C@H](C)OC)c2c3cc(ccc31)-c1cccc(c1)C[C@H](NC(=O)[C@H](C(C)C)N1CC[C@@H](CN=C=NCCOC)C1)C(=O)N1CCC[C@H](N1)C(=O)OCC(C)(C)C2
0.1 to 1 µM

* * *

# pIC50 per record follows
# tgt: NRAS G12C (Homo sapiens (Human), UniProt P01111+P62937, G12C)
# Sequence (P01111 whole entry G12C): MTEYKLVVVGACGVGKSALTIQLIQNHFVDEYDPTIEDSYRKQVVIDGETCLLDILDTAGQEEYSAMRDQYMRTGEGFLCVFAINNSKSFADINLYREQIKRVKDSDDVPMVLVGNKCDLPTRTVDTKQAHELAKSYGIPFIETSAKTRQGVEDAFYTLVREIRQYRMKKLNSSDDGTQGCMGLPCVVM
# Sequence (P62937 whole entry): as the sequence (P62937 whole entry) above
# procedure text: Ras-Raf disruption/FRET/MOA assay (BRAF RBD, Cyclophilin A)
# Assay type: biochemical
# run conditions: read-out: NRAS G12C FRET data IC50
pIC50: −log10 of the molar value.

State, for NRAS G12C (Homo sapiens (Human), UniProt P01111+P62937, G12C), measured pIC50 of the molecule listed here: CCn1c(-c2cccnc2[C@H](C)OC)c2c3cc(ccc31)-c1cc(O)cc(c1)C[C@H](NC(=O)[C@H](C(C)C)N(C)C(=O)[C@@H]1CCN(C(=O)OC)C1)C(=O)N1CCC[C@H](N1)C(=O)OCC(C)(C)C2
7.00 to 8.00

State, for NRAS G12C (Homo sapiens (Human), UniProt P01111+P62937, G12C), measured pIC50 of the molecule listed here: CCn1c(-c2cccnc2[C@H](C)OC)c2c3cc(ccc31)-c1cc(O)cc(c1)C[C@H](NC(=O)[C@H](C(C)C)N(C)C(=O)C1CCc3ncccc3C1)C(=O)N1CCC[C@H](N1)C(=O)OCC(C)(C)C2 (stereo partly drawn)
7.00 to 8.00

State, for NRAS G12C (Homo sapiens (Human), UniProt P01111+P62937, G12C), measured pIC50 of the molecule listed here: CCn1c(-c2cccnc2[C@H](C)OC)c2c3cc(ccc31)-c1cc(O)cc(c1)C[C@H](NC(=O)[C@@H](C(C)C)N(C)C(C)=O)C(=O)N1CCC[C@H](N1)C(=O)OCC(C)(C)C2
5.00 to 6.00

State, for NRAS G12C (Homo sapiens (Human), UniProt P01111+P62937, G12C), measured pIC50 of the molecule listed here: CCn1c(-c2cccnc2[C@H](C)OC)c2c3cc(ccc31)-c1csc(n1)C[C@H](NC(=O)C1CC1)C(=O)N1CCC[C@H](N1)C(=O)OCC(C)(C)C2
6.00 to 7.00

State, for NRAS G12C (Homo sapiens (Human), UniProt P01111+P62937, G12C), measured pIC50 of the molecule listed here: CCn1c(-c2cccnc2[C@H](C)OC)c2c3cc(ccc31)-c1csc(n1)C[C@H](NC(=O)[C@H](C(C)C)N(C)C(=O)[C@H]1[C@@H]3CNC[C@@H]31)C(=O)N1CCC[C@H](N1)C(=O)OCC(C)(C)C2
5.00 to 6.00

State, for NRAS G12C (Homo sapiens (Human), UniProt P01111+P62937, G12C), measured pIC50 of the molecule listed here: CCn1c(-c2cccnc2[C@H](C)OC)c2c3cc(ccc31)-c1csc(n1)C[C@H](NC(=O)[C@H](C(C)C)N(C)C(=O)N1CC(CN(C)C)C1)C(=O)N1CCC[C@H](N1)C(=O)OCC(C)(C)C2
7.00 to 8.00

State, for NRAS G12C (Homo sapiens (Human), UniProt P01111+P62937, G12C), measured pIC50 of the molecule listed here: CCn1c(-c2cccnc2[C@H](C)OC)c2c3cc(ccc31)-c1csc(n1)C[C@H](NC(=O)[C@H](C(C)C)N(C)C(=O)N1CCN(C)CC13CC3)C(=O)N1CCC[C@H](N1)C(=O)OCC(C)(C)C2
5.00 to 6.00

State, for NRAS G12C (Homo sapiens (Human), UniProt P01111+P62937, G12C), measured pIC50 of the molecule listed here: CCn1c(-c2cccnc2[C@H](C)OC)c2c3cc(ccc31)-c1cc(O)cc(c1)C[C@H](NS(=O)(=O)c1ccc(O)cc1)C(=O)N1CCC[C@H](N1)C(=O)OCC(C)(C)C2
< 5.00

State, for NRAS G12C (Homo sapiens (Human), UniProt P01111+P62937, G12C), measured pIC50 of the molecule listed here: CCn1c(-c2cnccc2COC)c2c3cc(ccc31)-c1cc(O)cc(c1)C[C@H](NC(=O)[C@H](C(C)C)N(C)C(=O)[C@@H]1CNC[C@@H]1C(F)(F)F)C(=O)N1CCC[C@H](N1)C(=O)OCC(C)(C)C2
6.00 to 7.00

All values here come from patent US20250195521A1.
